# TEST_TARGET: Integrin alpha-IIb/beta-3 (Homo sapiens, UniProt P05106+P08514)
# Sequence (P05106 27-788 limits assumed): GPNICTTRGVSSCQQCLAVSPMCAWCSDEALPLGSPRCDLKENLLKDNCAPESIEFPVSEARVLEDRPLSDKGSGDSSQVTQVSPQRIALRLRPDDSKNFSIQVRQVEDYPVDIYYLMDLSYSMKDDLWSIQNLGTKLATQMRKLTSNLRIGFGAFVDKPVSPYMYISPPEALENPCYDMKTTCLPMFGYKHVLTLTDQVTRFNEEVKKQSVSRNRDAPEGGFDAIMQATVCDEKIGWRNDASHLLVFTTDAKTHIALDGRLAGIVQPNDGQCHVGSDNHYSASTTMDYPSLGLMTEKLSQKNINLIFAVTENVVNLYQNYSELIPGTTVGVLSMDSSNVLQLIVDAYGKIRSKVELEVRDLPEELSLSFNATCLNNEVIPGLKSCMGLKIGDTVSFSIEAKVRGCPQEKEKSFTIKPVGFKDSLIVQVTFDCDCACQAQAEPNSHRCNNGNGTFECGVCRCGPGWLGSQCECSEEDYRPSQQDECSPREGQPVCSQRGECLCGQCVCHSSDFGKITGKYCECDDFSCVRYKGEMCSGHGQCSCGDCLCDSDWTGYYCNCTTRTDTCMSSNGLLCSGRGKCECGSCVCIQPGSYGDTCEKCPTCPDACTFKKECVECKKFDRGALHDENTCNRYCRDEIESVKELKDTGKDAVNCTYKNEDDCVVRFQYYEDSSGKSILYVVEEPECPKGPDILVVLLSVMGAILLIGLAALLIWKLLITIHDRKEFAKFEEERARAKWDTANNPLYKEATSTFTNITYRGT
# Sequence (P08514 32-887 limits assumed): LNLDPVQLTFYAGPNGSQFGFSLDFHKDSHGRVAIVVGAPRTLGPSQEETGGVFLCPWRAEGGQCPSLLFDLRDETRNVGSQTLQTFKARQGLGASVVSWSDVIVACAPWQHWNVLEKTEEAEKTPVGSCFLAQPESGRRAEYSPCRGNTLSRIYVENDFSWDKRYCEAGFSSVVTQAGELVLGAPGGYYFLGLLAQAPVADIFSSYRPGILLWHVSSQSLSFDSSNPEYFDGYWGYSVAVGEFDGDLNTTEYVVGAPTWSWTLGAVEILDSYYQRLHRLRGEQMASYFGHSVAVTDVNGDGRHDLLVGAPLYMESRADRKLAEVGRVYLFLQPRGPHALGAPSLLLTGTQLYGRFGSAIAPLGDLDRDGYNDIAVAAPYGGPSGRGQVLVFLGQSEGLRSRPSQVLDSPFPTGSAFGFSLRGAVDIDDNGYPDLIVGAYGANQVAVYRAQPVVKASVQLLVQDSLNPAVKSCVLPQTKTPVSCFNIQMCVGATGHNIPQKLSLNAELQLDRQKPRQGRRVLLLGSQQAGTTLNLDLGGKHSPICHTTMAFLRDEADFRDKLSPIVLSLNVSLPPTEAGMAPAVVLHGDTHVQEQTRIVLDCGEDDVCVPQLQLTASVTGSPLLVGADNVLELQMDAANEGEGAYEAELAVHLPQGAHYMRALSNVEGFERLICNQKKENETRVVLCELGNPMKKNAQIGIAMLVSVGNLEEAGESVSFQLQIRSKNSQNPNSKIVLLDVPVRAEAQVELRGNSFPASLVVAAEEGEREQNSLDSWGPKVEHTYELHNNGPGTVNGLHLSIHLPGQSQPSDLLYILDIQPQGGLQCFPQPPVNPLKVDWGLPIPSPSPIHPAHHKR
# Sequence (P08514 891-1039 limits assumed): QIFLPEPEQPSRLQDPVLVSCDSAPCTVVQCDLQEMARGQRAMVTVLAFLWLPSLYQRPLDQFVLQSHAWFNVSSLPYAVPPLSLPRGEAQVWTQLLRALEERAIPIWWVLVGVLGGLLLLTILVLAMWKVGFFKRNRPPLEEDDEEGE
# PROTOCOL_DETAILS: Inhibition of platelet aggregation in vitro using fibrinogen binding assay
ASSAY_ENDPOINT: pIC50
The scale used: pIC50 is minus the common logarithm of the concentration in molar units.

What value of measured pIC50 is listed for CC(C)[C@H]1NC(=O)c2cccc(c2F)CNC(=O)[C@H](CC(=O)O)NC(=O)CNC(=O)[C@H](CCCN=C(N)N)N(C)C1=O ?
8.40

All figures here come from ChEMBL document CHEMBL1128818.
